MEASUREMENT_TARGET: Carbonic anhydrase 2 (Bos taurus)
TEST: Evaluation of binding constant to bovine carbonic anhydrase II, measured by fluorescence in 20 mM phosphate buffer (pH=7.5)
Reported Kb values are given for each entry in this list.
QUANTITY_MEASURED: Kb (M⁻¹)

> print(dat)
                                    molecule  value.reported
 1        NS(=O)(=O)c1ccc(CNC(=O)C2CCCC2)cc1           6e+06
 2  NS(=O)(=O)c1ccc(C(=O)NCC(F)(F)C(F)(F)F)cc1         1.8e+08
 3  NS(=O)(=O)c1ccc(C(=O)NCC(F)(F)C(F)(F)C(F)(F)F)cc1         1.1e+09
 4  CCCC(C)CC(=O)NCc1ccc(S(N)(=O)=O)cc1 (configuration not stated)         5.7e+06
 5      NS(=O)(=O)c1ccc(CNC(=O)CC2CCCCC2)cc1         1.3e+07
 6       NS(=O)(=O)c1ccc(C(=O)NCC(F)(F)F)cc1         4.7e+07
 7  CCCCC(CC)C(=O)NCc1ccc(S(N)(=O)=O)cc1 (configuration not stated)         7.1e+06
 8        CCC(CC)C(=O)NCc1ccc(S(N)(=O)=O)cc1         2.9e+06
 9          CCN(CC)C(=O)c1ccc(S(N)(=O)=O)cc1         1.7e+07
10        CC(C)CCC(=O)NCc1ccc(S(N)(=O)=O)cc1         4.8e+06
11              CCNC(=O)c1ccc(S(N)(=O)=O)cc1         5.9e+06
12             CCCNC(=O)c1ccc(S(N)(=O)=O)cc1         2.6e+07
